Where do the numbers come from? From PubChem BioAssay AID1645864.

Target: UniProt A8MUK1
Test: ubiquitin-specific protease 17 DUB inhibitors, concentration-effect assay, cell-free, verification of initial screening actives (AID 1645864)
Settings: purified USP17, ubiquitin-rhodamine cleavage fluorescence, 3 h
Activity calls are given as the source filed them.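 Rule for the calls: active = maximal inhibition of USP17 at or above 30% in the confirmation dose-response, a value not among the printed readouts; inactive = the rest.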
Choose one outcome from this list and give only that: 1 (yes) for active, 0 (no) for inactive

## Task So what was the verdict on `O=C(NCc1ccc(F)cc1)c1cc(-n2cnnn2)ccc1Cl` in this test?
## Result 1 (yes)

## Task So what was the verdict on `COC(=O)c1ccc(Cn2cnc3ccc(Br)cc3c2=O)o1` in this test?
## Result 0 (no)

## Task So what was the verdict on Cc1nn(-c2ccccc2)c2c1N=C1C(Cl)=CC(Cl)=CN1C21C(=O)Nc2ccccc21 (stereo not given) in this test?
## Result 0 (no)

## Task So what was the verdict on `COc1cccc2c1NC(=O)C21CCN(C(=O)Nc2cccc(C)c2)CC1` in this test?
## Result 1 (yes)

## Task So what was the verdict on `O=C(Nc1cccc(C(F)(F)F)c1)c1cc2c(s1)-c1ccccc1OC2` in this test?
## Result 1 (yes)

## Task So what was the verdict on `O=c1[nH]c(C2CCN(S(=O)(=O)c3ccc(S(=O)(=O)NC4CCCCC4)cc3)CC2)nc2c1nnn2Cc1c(Cl)cccc1Cl` in this test?
## Result 1 (yes)

## Task So what was the verdict on `Cc1nc2c3ccccc3nc(NCc3ccc4c(c3)OCO4)n2n1` in this test?
## Result 1 (yes)

## Task So what was the verdict on `COc1ccc(-c2nc(-c3nnn(Cc4ccc(F)cc4)c3C)no2)c(OC)c1` in this test?
## Result 1 (yes)

## Task So what was the verdict on CC(C)(C)C(=O)NC(c1ccccc1)c1nnc(N2CCOCC2)o1 (stereo not given) in this test?
## Result 0 (no)

## Task So what was the verdict on `O=C(Nc1ccc(F)cc1F)c1csc(-c2ccccc2)n1` in this test?
## Result 1 (yes)

* * *

Biological target: Ubiquitin carboxyl-terminal hydrolase 17-like protein 5 (Homo sapiens) (UniProt A8MUK1)
Sequence (A8MUK1 whole entry, looked up): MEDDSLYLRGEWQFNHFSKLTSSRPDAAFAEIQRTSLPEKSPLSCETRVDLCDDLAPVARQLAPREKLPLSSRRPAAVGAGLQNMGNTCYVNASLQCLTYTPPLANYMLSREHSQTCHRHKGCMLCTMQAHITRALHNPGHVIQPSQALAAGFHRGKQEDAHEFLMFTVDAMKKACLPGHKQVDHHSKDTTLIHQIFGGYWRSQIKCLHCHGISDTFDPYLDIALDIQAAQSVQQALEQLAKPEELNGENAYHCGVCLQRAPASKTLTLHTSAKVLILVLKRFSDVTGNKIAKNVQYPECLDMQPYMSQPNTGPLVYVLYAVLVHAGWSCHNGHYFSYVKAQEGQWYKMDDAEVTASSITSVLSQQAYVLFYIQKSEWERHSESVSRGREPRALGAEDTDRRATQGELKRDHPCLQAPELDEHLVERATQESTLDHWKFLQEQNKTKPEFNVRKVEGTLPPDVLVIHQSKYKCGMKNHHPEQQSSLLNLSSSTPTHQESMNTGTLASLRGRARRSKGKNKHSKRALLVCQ
Assay: ubiquitin-specific protease 17 DUB inhibitors, concentration-effect assay, cell-free, verification of initial screening actives (AID 1645864)
Details: purified USP17, ubiquitin-rhodamine cleavage fluorescence, 3 h
Active and inactive are the calls of the source.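 How the source made its calls: active means maximal inhibition of USP17 at or above 30% in the confirmation dose-response, a value not among the printed readouts; inactive means the rest.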
Choose one outcome from this list and give only that: true (1) (active), false (0) (inactive)

Some solved cases for reference:
MOLECULE: COCC(=O)Nc1cc(F)c2nc(N3CCOCC3)ccc2c1
LABEL CLASS: true (1)
//
MOLECULE: O=C(NCCc1ccccn1)c1cc(-c2ccc(Br)cc2)n[nH]1
LABEL CLASS: true (1)
//
MOLECULE: CCOc1ccccc1NC(=O)Cn1c(=O)n(CCCC(=O)NCc2ccc(C)cc2)c(=O)c2sccc21
LABEL CLASS: true (1)

Consider the record given below.
## Task So what was the verdict on `Cc1sc2nc(CN3CCCC3)nc(NCCc3ccc(Cl)cc3)c2c1C` in this test?
## Result false (0)

* * *

Target: Ubiquitin carboxyl-terminal hydrolase 17-like protein 5 (Homo sapiens) (UniProt A8MUK1)
Experiment: ubiquitin-specific protease 17 DUB inhibitors, concentration-effect assay, cell-free, verification of initial screening actives (AID 1645864)
Conditions: purified USP17, ubiquitin-rhodamine cleavage fluorescence, 3 h
The source made the active and inactive calls.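 The calls were made as follows: active = maximal inhibition of USP17 at or above 30% in the confirmation dose-response, a value not among the printed readouts; inactive = the rest.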
ENDPOINT LABEL: IC50

See these solved cases before continuing.
COMPOUND: COc1ccc(C)cc1NC(=O)Cc1csc(NC(=O)c2ccc(=O)[nH]c2)n1
IC50: 40.5 µM
--
COMPOUND: O=C(Cn1cncc(C(=O)NC2CCCC2)c1=O)Nc1cccc(F)c1
IC50: 19 µM
--
COMPOUND: Nc1nonc1C(=O)NCCNCc1cccc(OCc2ccc(Cl)cc2)c1
IC50: > 50 µM (inactive)
--
COMPOUND: O=C1c2c(O)c(Cl)cc3c2[C@@]2(Oc4cc(Cl)c(O)c5c4[C@]3(O2)[C@@H]2O[C@@H]2C5=O)[C@@H]2O[C@H]12
IC50: 0.411 µM

The recorded IC50 for Cc1cc(O)cc2cc3c(c(O)c12)C(=O)CCC3O (stereo unspecified) is > 50 µM (inactive)

The recorded IC50 for `COCCNC(=O)c1ccnn1-c1ccc2ccc(-c3cccnc3)cn12` is > 50 µM (inactive)

The recorded IC50 for `Cc1ccc(-c2cn(CC(=O)N3CCN(c4ccccn4)CC3)c(=O)o2)cc1` is 13 µM

The recorded IC50 for `COc1ccc(OC)c2c(C)cc(N3CCN(S(=O)(=O)c4ccc5c(c4)CCCN5S(C)(=O)=O)CC3)nc12` is 9.83 µM

The recorded IC50 for `CCc1ccc(NC(=O)CN=C2NS(=O)(=O)C(c3ccc(CC)cc3)=C2C)cc1` is 32.5 µM
